Test system: Akt phosphorylation induced by IGF-1R
Assay: Western blot analysis of Akt phosphorylation induced by IGF-1 in HT-29 cells
Format: cell-based, Human
Details: 0.1 nM compound, HT-29 cells, IGF-1
Would you mind labelling by Levels of phosphorylated AKT in treated cells (pAKT/actin)? At or over 0.9 is criterion met, under is criterion not met.

- O=C(Nc1ccc(F)nc1)C1CCCN1c1nc2c(c(Nc3cc(C4CCCC4)[nH]n3)n1)CCCC2 (single isomer, unassigned) [Compound 15b]: criterion not met
- O=C(Nc1ccc(F)nc1)C1CCCN1c1nc2c(c(Nc3cc(C4CC4)[nH]n3)n1)CCC2 (single isomer, unassigned) [Compound 2a]: criterion met
- O=C(Nc1ccc(F)nc1)C1CCCN1c1nc2c(c(Nc3cc(C4CCCC4)[nH]n3)n1)CCC2 (single isomer, unassigned) [Compound 4b]: criterion met
- O=C(Nc1ccc(F)nc1)C1CCCCN1c1nc2c(c(Nc3cc(C4CCCC4)[nH]n3)n1)CCC2 (single isomer, unassigned) [Compound 17b]: criterion not met

Turning to the following compound.
(Q) Textbook exercise: given the entry CC1(O)CC(c2nc(-c3ccc4ccc(-c5ccccc5)nc4c3)c3c(N)nccn23)C1 (stereo not drawn) [OSI-906, reference compound] , state whether its Levels of phosphorylated AKT in treated cells (pAKT/actin) is greater than or equal to 0.9.
(A) criterion met

====

Consider the following molecules and their measured % Inh @ 30 nM (N1) readings.
Target: IGF-1R (Homo sapiens)
Construct: purchased Millipore 14-802
Sequence (P08069 31-1367): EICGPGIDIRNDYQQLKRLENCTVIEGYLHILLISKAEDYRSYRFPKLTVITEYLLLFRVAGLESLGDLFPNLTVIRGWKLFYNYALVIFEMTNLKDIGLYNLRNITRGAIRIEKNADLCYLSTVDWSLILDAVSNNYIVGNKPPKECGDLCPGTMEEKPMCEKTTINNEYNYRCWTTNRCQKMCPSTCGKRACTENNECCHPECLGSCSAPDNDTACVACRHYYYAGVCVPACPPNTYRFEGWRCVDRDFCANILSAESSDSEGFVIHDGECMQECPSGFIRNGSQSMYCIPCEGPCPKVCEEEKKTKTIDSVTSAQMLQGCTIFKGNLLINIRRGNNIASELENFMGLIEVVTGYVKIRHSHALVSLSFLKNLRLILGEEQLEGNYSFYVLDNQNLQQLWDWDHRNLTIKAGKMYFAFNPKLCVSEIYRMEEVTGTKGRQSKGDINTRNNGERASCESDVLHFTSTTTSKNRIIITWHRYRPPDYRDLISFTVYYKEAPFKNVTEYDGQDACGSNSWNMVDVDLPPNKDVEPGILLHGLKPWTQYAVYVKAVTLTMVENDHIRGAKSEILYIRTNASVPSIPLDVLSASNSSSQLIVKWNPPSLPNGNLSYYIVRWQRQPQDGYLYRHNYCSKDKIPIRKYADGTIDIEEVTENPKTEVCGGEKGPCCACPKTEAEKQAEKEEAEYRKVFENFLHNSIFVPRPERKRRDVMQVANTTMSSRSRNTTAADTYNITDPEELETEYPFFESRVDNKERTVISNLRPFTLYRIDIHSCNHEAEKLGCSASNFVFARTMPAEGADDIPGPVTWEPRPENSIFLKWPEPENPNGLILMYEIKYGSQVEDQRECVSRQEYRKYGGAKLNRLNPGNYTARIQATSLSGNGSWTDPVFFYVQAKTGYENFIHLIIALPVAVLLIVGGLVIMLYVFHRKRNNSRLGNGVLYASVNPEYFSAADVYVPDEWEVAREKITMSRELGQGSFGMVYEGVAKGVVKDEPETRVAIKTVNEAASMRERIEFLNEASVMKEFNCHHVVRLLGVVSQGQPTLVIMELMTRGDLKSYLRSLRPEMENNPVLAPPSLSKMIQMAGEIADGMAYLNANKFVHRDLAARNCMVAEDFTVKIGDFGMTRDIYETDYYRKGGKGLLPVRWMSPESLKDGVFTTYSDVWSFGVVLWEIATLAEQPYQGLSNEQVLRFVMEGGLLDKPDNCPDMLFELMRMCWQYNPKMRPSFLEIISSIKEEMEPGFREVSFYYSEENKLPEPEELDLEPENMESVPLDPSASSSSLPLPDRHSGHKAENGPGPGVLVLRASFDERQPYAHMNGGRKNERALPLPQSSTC
Assay: In vitro IGF-1R enzymatic assay (ADP-Glo kinase assay)
Type: biochemical
Conditions: activated IGF-1R, 30 nM, N1; 0.03 µM
Answer with a number only, understood to be in %.

// worked examples, % Inh @ 30 nM (N1) included
* O=C(Nc1ccc(F)nc1)C1CCCN1c1nc2c(c(Nc3cc(C4CCCC4)[nH]n3)n1)CCC2 (single isomer, unassigned) [Compound 4a] | 4
* CC(C)c1cc(Nc2nc(N3CCCCC3C(=O)Nc3ccc(F)nc3)nc3c2CCC3)n[nH]1 (single isomer, unassigned) [Compound 16b] | 40
* O=C(Nc1ccc(F)nc1)C1CCCCN1c1nc2c(c(Nc3cc(C4CCCC4)[nH]n3)n1)CCC2 (single isomer, unassigned) [Compound 17b] | 21

(Q) Output % Inh @ 30 nM (N1) of O=C(Nc1ccc(F)nc1)C1CCCN1c1nc2c(c(Nc3cc(C4CCCC4)[nH]n3)n1)CCC2 (single isomer, unassigned) [Compound 4b]
(A) 22

(Q) Output % Inh @ 30 nM (N1) of O=C(Nc1ccc(F)nc1)C1CCCN1c1nc2c(c(Nc3cc(C4CCCC4)[nH]n3)n1)CCCC2 (single isomer, unassigned) [Compound 15b]
(A) 32

(Q) Output % Inh @ 30 nM (N1) of O=C(Nc1ccc(F)nc1)C1C(O)CCN1c1nc2c(c(Nc3cc(C4CC4)[nH]n3)n1)CCC2 (single isomer, unassigned) [Compound 11b]
(A) 22

====

Test system: Akt phosphorylation induced by IGF-1R
Experiment: Western blot analysis of Akt phosphorylation induced by IGF-1 in HT-29 cells
Format: cell-based, Human
Details: 100 nM; Table B2 lower part
Experimental: Inhibition of Akt phosphorylation induced by IGF-1R was studied by western blot analysis. Human colon carcinoma HT-29 cells were seeded at a density of 8×10^4 cells/well in a 24-well plate and grown in DME/F12 media containing 10% FBS for 24 h. […] Lysed cells were centrifuged at 13,000 rpm for 15 min and the protein concentration soluble fraction (supernatant) of each sample was determined using a BCA protein assay (Pierce).
Define the label as YES when p-AKT relative to levels with 0.1 nM compound is strictly less than 0.5 and as NO in all remaining cases.

- CC(C)c1cc(Nc2nc(N3CCCCC3C(=O)Nc3ccc(F)nc3)nc3c2CCC3)n[nH]1 (single isomer, unassigned) [Compound 16a]: YES
- O=C(Nc1ccc(F)nc1)C1CCCN1c1nc2c(c(Nc3cc(C4CC4)[nH]n3)n1)CCC2 (single isomer, unassigned) [Compound 2a]: NO

Turning to the following compound.
(Q) Lab log: compare recorded p-AKT relative to levels with 0.1 nM compound with 0.5; is it strictly lower for O=C(Nc1ccc(F)nc1)C1CCCN1c1nc2c(c(Nc3cc(C4CCCC4)[nH]n3)n1)CCCC2 (single isomer, unassigned) [Compound 15b] ?
(A) YES

====

Consider the following compounds and their measured Levels of phosphorylated AKT in treated cells (pAKT/actin) readings.
Tested on: Akt phosphorylation induced by IGF-1R
Assay: Western blot analysis of Akt phosphorylation induced by IGF-1 in HT-29 cells
Format: cell-based, Human
Details: 0.1 nM compound, HT-29 cells, IGF-1
Could you respond with only the numeric value?

// worked examples, Levels of phosphorylated AKT in treated cells (pAKT/actin) included
- O=C(Nc1cnccn1)C1CCCN1c1nc2c(c(Nc3cc(C4CC4)[nH]n3)n1)CCC2 (single isomer, unassigned) [Compound 6a]: 1.85
- O=C(Nc1ccc(F)nc1)C1CCCN1c1nc2c(c(Nc3cc(C4CCCC4)[nH]n3)n1)CCC2 (single isomer, unassigned) [Compound 4a]: 2.38
- O=C(Nc1ccc(F)nc1)C1CC(O)CN1c1nc2c(c(Nc3cc(C4CC4)[nH]n3)n1)CCC2 (racemic) [Compound 10b]: 2.21

Lab note: next compound to report on.
(Q) Output Levels of phosphorylated AKT in treated cells (pAKT/actin) of O=C(Nc1ccc(F)nc1)C1CCCN1c1nc2c(c(Nc3cc(C4CC4)[nH]n3)n1)CCCC2 (single isomer, unassigned) [Compound 14b]
(A) 0.51

====

Tested on: Akt phosphorylation induced by IGF-1R
Assay: Western blot analysis of Akt phosphorylation induced by IGF-1 in HT-29 cells
Assay type: cell-based, Human
Conditions: 1 nM compound, HT-29 cells, IGF-1
EXPERIMENTAL ENDPOINT: Levels of phosphorylated AKT in treated cells (pAKT/actin)
Could you respond with only the numeric value?

• O=C(Nc1ccc(F)nc1)C1CCCN1c1nc2c(c(Nc3cc(C4CCCC4)[nH]n3)n1)CCC2 (single isomer, unassigned) [Compound 4a] = 1.64
• CC(C)c1cc(Nc2nc(N3CCC[C@@H]3C(=O)Nc3ccc(F)nc3)nc3c2CCC3)on1 (single isomer, unassigned) [Compound 12a] = 3.33

Lab note: next molecule to report on.
(Q) Output Levels of phosphorylated AKT in treated cells (pAKT/actin) of O=C(Nc1cnccn1)C1CCCN1c1nc2c(c(Nc3cc(C4CC4)[nH]n3)n1)CCC2 (single isomer, unassigned) [Compound 6a]
(A) 1.74

====

Consider the following molecules and their measured Levels of phosphorylated AKT in treated cells (pAKT/actin) readings.
Test system: Akt phosphorylation induced by IGF-1R
Test: Western blot analysis of Akt phosphorylation induced by IGF-1 in HT-29 cells
Format: cell-based, Human
Conditions: 0.1 nM compound, HT-29 cells, IGF-1

// worked examples, Levels of phosphorylated AKT in treated cells (pAKT/actin) included
* CC(C)c1cc(Nc2nc(N3CCCCC3C(=O)Nc3ccc(F)nc3)nc3c2CCC3)n[nH]1 (single isomer, unassigned) [Compound 16a] | 0.82
* O=C(Nc1ccc(F)nc1)C1CC(O)CN1c1nc2c(c(Nc3cc(C4CC4)[nH]n3)n1)CCC2 (racemic) [Compound 10a] | 2.28
* O=C(Nc1cnccn1)C1CCCN1c1nc2c(c(Nc3cc(C4CC4)[nH]n3)n1)CCC2 (racemic) [Compound 6] | 1.54

(Q) Output Levels of phosphorylated AKT in treated cells (pAKT/actin) of CC(C)c1cc(Nc2nc(N3CCCC3C(=O)Nc3ccc(F)nc3)nc3c2CCC3)on1 (racemic) [Compound 12b]
(A) 3.66

(Q) Output Levels of phosphorylated AKT in treated cells (pAKT/actin) of CC(C)c1cc(Nc2nc(N3CCCC3C(=O)Nc3ccc(F)nc3)nc3c2CCCC3)n[nH]1 (single isomer, unassigned) [Compound 13b]
(A) 0.22

(Q) Output Levels of phosphorylated AKT in treated cells (pAKT/actin) of CC(C)c1cc(Nc2nc(N3CCCC3C(=O)Nc3ccc(F)nc3)nc3c2CCCC3)n[nH]1 (single isomer, unassigned) [Compound 13a]
(A) 0.51

(Q) Output Levels of phosphorylated AKT in treated cells (pAKT/actin) of CC(C)c1cc(Nc2nc(N3CCC[C@@H]3C(=O)Nc3ccc(F)nc3)nc3c2CCC3)on1 (single isomer, unassigned) [Compound 12a]
(A) 4.17

(Q) Output Levels of phosphorylated AKT in treated cells (pAKT/actin) of CC(C)c1cc(Nc2nc(N3CCC[C@H]3C(=O)Nc3ccc(F)nc3)nc3c2CCC3)n[nH]1 (single isomer, unassigned)
(A) 1.93

(Q) Output Levels of phosphorylated AKT in treated cells (pAKT/actin) of O=C(Nc1ccc(F)nc1)C1CCCN1c1nc2c(c(Nc3cc(C4CC4)[nH]n3)n1)CCCC2 (single isomer, unassigned) [Compound 14a]
(A) 0.73
